# Test Description: Free energy of hydration by COSMO-RS
Property: COSMO-RS error

> print(dat)
      chemical.structure        property  experimental.value
 1            c1cc[nH]c1  COSMO-RS error       0.96 kcal/mol
 2                 CCC=O  COSMO-RS error       0.26 kcal/mol
 3                CCCCCC  COSMO-RS error       0.06 kcal/mol
 4   c1ccc(-c2ccccc2)cc1  COSMO-RS error       0.31 kcal/mol
 5             CCC(=O)CC  COSMO-RS error       0.06 kcal/mol
 6                   CNC  COSMO-RS error       2.12 kcal/mol
 7                   C=C  COSMO-RS error       0.55 kcal/mol
 8             CCCC(=O)O  COSMO-RS error       0.11 kcal/mol
 9  c1ccc2cc3ccccc3cc2c1  COSMO-RS error       0.17 kcal/mol
10             CCCC(C)=O  COSMO-RS error       0.07 kcal/mol
11                   CCC  COSMO-RS error       0.05 kcal/mol
12                C=CCCC  COSMO-RS error       0.56 kcal/mol
13             Oc1ccccc1  COSMO-RS error       0.62 kcal/mol

====

# Test Description: Free energy of hydration by Polarizable Continuum Model (PCM)
# Reported Conditions: absolute error vs Exp (hydration)
Property: PCM Error

> print(dat)
                      compound   property  experimental.value
 1                       C=CCC  PCM Error       2.18 kcal/mol
 2                      CN(C)C  PCM Error       1.90 kcal/mol
 3                         C=C  PCM Error       2.08 kcal/mol
 4                      CCCCCO  PCM Error       1.17 kcal/mol
 5      CCSCC [DiEthylSulfide]  PCM Error       0.57 kcal/mol
 6                   CCCCCCCCO  PCM Error       0.79 kcal/mol
 7                       CCCOC  PCM Error       0.14 kcal/mol
 8                         CCO  PCM Error       1.91 kcal/mol
 9                   CCCC(=O)O  PCM Error       2.05 kcal/mol
10                    CCCCCCCC  PCM Error       3.19 kcal/mol
11                     CC(=O)O  PCM Error       2.19 kcal/mol
12    CCOC(C)=O [EthylAcetate]  PCM Error       0.58 kcal/mol
13                       CCCCN  PCM Error       1.44 kcal/mol
14                     C1CCCC1  PCM Error       1.40 kcal/mol
15                        CCCO  PCM Error       1.82 kcal/mol
16         CC(N)=O [Acetamide]  PCM Error       2.81 kcal/mol
17  CCCCOC(C)=O [ButylAcetate]  PCM Error       1.25 kcal/mol
18                         CCC  PCM Error       2.06 kcal/mol
19                    c1ccncc1  PCM Error       1.49 kcal/mol
20                   Oc1ccccc1  PCM Error       2.62 kcal/mol
21                  Cc1ccccc1O  PCM Error       2.17 kcal/mol
22                        C=CC  PCM Error       2.12 kcal/mol
23                        CCCC  PCM Error       2.30 kcal/mol
